Source listed as patent US20250255882A1.

Quick reference for latency to find and reach the hidden platform among some molecules
System: mouse model of HF (myocardial infarction, MI)
test-name: MWM test (long-term spatial learning and memory) with probe trial
Format: in vivo
conditions-used: MI mice, treated; day 4 training trials; MI 30±1 s, SHAM 21±2 s
Your answer is read as s, so omit the unit and give the number.

// query What measured latency to find and reach the hidden platform is associated with CC(C)NCC(O)COc1cccc2ccccc12 (stereo not shown) on mouse model of HF (myocardial infarction, MI)?
// result 17

// query What measured latency to find and reach the hidden platform is associated with COc1ccc2c(c1)CN(C)CCS2 on mouse model of HF (myocardial infarction, MI)?
// result 20

// query What measured latency to find and reach the hidden platform is associated with Fc1ccc(Cl)cc1-c1nc(Nc2ccncc2)c2nccnc2n1 on mouse model of HF (myocardial infarction, MI)?
// result 15

// query What measured latency to find and reach the hidden platform is associated with COc1ccc2c(c1)CN(C(=O)C(=O)O)CCS2 on mouse model of HF (myocardial infarction, MI)?
// result 29
